test: protein stability index of a GFP-peptide fusion (yeast GPS) (PSI 1-4); higher = more stable; sorted into four equal gates, so the index is relative within each strain; settings: doa10∆
Classification field: Y = protein stability index at or over 3; N = protein stability index under 3.

Example entries begin here.
ATGKKSRGINKGHKFNN [RPL15A]; N
KCQELVTNIRRIIQDNI [RRP46]; N
FIKVVNYNHLLPTRYTL [RPL27A]; N
FTAEGIVPDLIINPHAI [RPB2]; N
GQGYRKVGIWPYFDYIF [YJL039C/NUP192]; Y
ERNAFLSDYEVLKFLTD [RPC17]; Y
PHTVIRRKTTKQNSSSD [YDL088C/ASM4]; Y
DSADVPAFSNSNGFNNV [YMR153W/NUP53]; Y
MESEEVPLTKRYQHLEK [PCI8]; N
LPAPPVCIRPSVMMQDS [RPO31]; N

Task: Test whether the sequence QVPSSLIVRAKNHTHNL [RRP4] records protein stability index of 3 or higher.
Result: N

Task: Test whether the sequence NPHQKDQLIISSSANKL [YML103C/NUP188] records protein stability index of 3 or higher.
Result: N
